Below, each entry is listed with its recorded Affinity increase.
# system_under_test: T1, AFP158/HLA-A*02:01 complex (human)
# T1 construct: flowed over the chip in SPR; also called AFP158 pro
# protocol: SPR, KD ratio to AS170036 VL1VH1;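 further: crude scFv captured on a sensor chip, peptide–HLA complex passed over at several concentrations, association then buffer dissociation, KD derived from on- and off-rates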
Quick reminder: number only, in fold, skip the unit.

Examples with their reported Affinity increase follow.
>>> endpoint_result("HS57F (scFv, AS170036 VL1VH1 scFv mutein) scFv: QSALTQPRSVSGSPGQSVTISCAGTSSDVGSENYVSWYQQHPGKAPKLMIYQVNKRASGVPDRFSGSKSGNTASLTISGLQAEDEADYYCASYRSSDHNIVFGGGTKLTVLGGGGSGGGGSGGGGSEVQLVESGGGLVQPGGSLRLSCAASGFTFSSYAMSWVRQAPGKGLEWVSTINSGTGFPYYADSVKGRFTISRDNSKNTLYLQMNSLRAEDTAVYYCAKNFFDGSWFLGPPAMDYWGQGTLVTVSSHHHHHH")
1.4
>>> endpoint_result("HP58E (scFv, AS170036 VL1VH1 scFv mutein) scFv: QSALTQPRSVSGSPGQSVTISCAGTSSDVGSENYVSWYQQHPGKAPKLMIYQVNKRASGVPDRFSGSKSGNTASLTISGLQAEDEADYYCASYRSSDHNIVFGGGTKLTVLGGGGSGGGGSGGGGSEVQLVESGGGLVQPGGSLRLSCAASGFTFSSYAMSWVRQAPGKGLEWVSTINSGTGSEYYADSVKGRFTISRDNSKNTLYLQMNSLRAEDTAVYYCAKNFFDGSWFLGPPAMDYWGQGTLVTVSSHHHHHH")
0.5

Now look at this entry.
Data request: Annotate the binder HL107I (scFv, AS170036 VL1VH1 scFv mutein) scFv: QSALTQPRSVSGSPGQSVTISCAGTSSDVGSENYVSWYQQHPGKAPKLMIYQVNKRASGVPDRFSGSKSGNTASLTISGLQAEDEADYYCASYRSSDHNIVFGGGTKLTVLGGGGSGGGGSGGGGSEVQLVESGGGLVQPGGSLRLSCAASGFTFSSYAMSWVRQAPGKGLEWVSTINSGTGSPYYADSVKGRFTISRDNSKNTLYLQMNSLRAEDTAVYYCAKNFFDGSWFIGPPAMDYWGQGTLVTVSSHHHHHH with its measured Affinity increase.
Data returned: 1.1
